src = PubChem BioAssay (NCI)

Catalogue of compounds with associated growth
System: NCI-H322M lung
methodSummary: NCI-60 one-dose screen, 48 h (100 = growth as untreated, 0 = no growth, -100 = all killed)
assayConditions: 10 µM
This is part of a sample that, as a whole, favours compounds with a hit. Of some 83,000 tested, about 20% had one in any assay.
Please reply with the bare figure in % and do not write the unit itself.

Look over these answered cases.
>>> quantitativeresult("CCCn1c(=O)c2c(nc(-c3cccc(OCCCCl)c3)n2C)n(CCC)c1=O")
41
>>> quantitativeresult("CC(=O)O[C@H]1CC[C@@]2(C)[C@@H](CC[C@@H]3[C@@H]2CC[C@]2(C)C=C(C=O)C[C@@H]32)C1")
90.9
>>> quantitativeresult("O=C(N/N=C/c1ccccc1O)c1ccccc1")
34.3
>>> quantitativeresult("N#CN1CC[C@H](C(=O)Nc2ncc(-c3ccccc3)s2)C1")
28.4
>>> quantitativeresult("CCCCn1c(=O)[nH]c(N)c(C(c2ccc(Cl)cc2)c2c(N)[nH]c(=O)n(CCCC)c2=O)c1=O")
63.6
>>> quantitativeresult("Cc1ccc2nc(-c3ccc(OCC(=O)N=Nc4c(O)[nH]c5ccccc45)cc3)[nH]c2c1")
91.3
>>> quantitativeresult("O=c1[nH]c(=O)n(C2C[C@@H](O)[C@@H](CO)O2)cc1F (stereo not given in full)")
57.6
>>> quantitativeresult("COc1cc(C2c3cc4c(cc3C(O)C(CO)C2CO)OCO4)cc(OC)c1OC (stereo not given)")
-0.279
>>> quantitativeresult("CCOC(=O)c1sc(Nc2ncccn2)nc1-c1ccccn1")
85

Now look at this entry.
QUERY: Please look at `COc1ccccc1CNCCCN1C(=O)c2ccc3c4c(ccc(c24)C1=O)C(=O)N(CCCNCCNCCCN)C3=O` and tell me its recorded growth on NCI-H322M lung.
RESULT: 27.9

* * *

System: TK-10 renal
methodSummary: NCI-60 one-dose screen, 48 h
assayConditions: 10 µM
About 83,000 compounds went through this panel and 20% of them were active in at least one assay; those are over-represented in the sample as a whole. Active and inactive are the calls of the source. The calls were made as follows: active = growth percent below 10; inactive = the rest.
Bench note: report the call from active, inactive

Known results for molecules:
>>> cat("O=[N+]([O-])c1ccc(-c2nc(Cl)c3c(n2)CCCC3)o1")
"inactive"
>>> cat("C=CCNCCCN1C(=O)c2ccc3c4c(ccc(c24)C1=O)C(=O)N(CCCNCC=C)C3=O")
"active"
>>> cat("COc1cccc(C(=O)N(c2ccc(F)c(F)c2)C(C(=O)NC(C)(C)C)c2cc3c(C)cc(C)cc3nc2Cl)c1 (configuration not stated)")
"inactive"
>>> cat("S=C(Cc1ccc(-c2ccccc2)cc1)N1CCOCC1")
"inactive"
>>> cat("CCC(O)c1ccc(Br)cc1NC(=O)c1cccc(Cl)c1 (configuration not stated)")
"inactive"
>>> cat("O=C1/C(=C/c2ccc(O)cc2)CSc2ccc(Cl)cc21")
"inactive"
>>> cat("O=CNc1c(Cl)cc2c(c1Cl)Cc1cc([N+](=O)[O-])ccc1-2")
"inactive"
>>> cat("FC(F)(F)c1ccc(-c2cnc(Cl)nc2NCc2cc(C(F)(F)F)cc(C(F)(F)F)c2)cc1")
"inactive"

QUERY: Called result for `COc1ccc(S(=O)(=O)Nc2cc(/C=C\c3cc(OC)c(OC)c(OC)c3)ccc2OC)cc1`
RESULT: inactive

QUERY: # fetch the recorded call for CC1=CSC2=NC(c3ccc(Cl)c(Cl)c3)=CC(c3ccc(Cl)cc3)N12 (configuration not stated) here
RESULT: inactive

QUERY: Test call for this molecule, please: `CC(C)c1[nH]nc2c(NCc3ccc(-c4ccccn4)cc3)nc(SCCN(C)C)nc12`
RESULT: active

QUERY: I'd appreciate the recorded outcome for `CCCCCCN=C(N)CCCCCCCCCCC(N)=NCCCCCC` from this test.
RESULT: inactive

QUERY: Dear all, I need the recorded test outcome for `C[C@]12CC[C@H]3[C@@H](CC=C4C[C@@H](O)CC[C@@]43C)[C@@H]1CC[C@@H]2C(=O)C/C=N/O` , thank you.
RESULT: inactive

QUERY: For `Cc1cc(OI)c(C(C)C)cc1-c1cc(C(C)C)c(OI)cc1C` , which call appears in the assay record?
RESULT: inactive

QUERY: For `COc1ccc(-c2csc(NC(=O)CO[N+](=O)[O-])n2)cc1` , what call appears in the results of this test?
RESULT: inactive

QUERY: Please share the test call associated with `CC1(C)CCc2cc(-c3ccn(S(=O)(=O)c4ccc(Cl)cc4)n3)ccc2O1` .
RESULT: inactive

QUERY: Recorded call for NC1CCC(Nc2nc(NCc3ccc(-c4ccccc4O)nc3)c3ncn(C4CCCC4)c3n2)CC1 (configuration not stated) ?
RESULT: active

QUERY: Field: outcome | Entry: `O=C(CCCC(=O)N/N=C/c1cc(Cl)ccc1O)N/N=C\c1cc(Cl)ccc1O`
RESULT: inactive

QUERY: Could you kindly confirm the outcome this assay logged for COc1ccc(C2=NNC(c3sc(Cl)nc3Cl)C2)cc1 (configuration not stated) ?
RESULT: inactive

QUERY: Recorded test call requested for `C=CCNC(=S)NN`
RESULT: inactive

QUERY: Outcome logged for `O=S(=O)(O)C1(O)CCCCC1` in this assay:
RESULT: inactive

QUERY: I'd appreciate the recorded outcome for COCCNCC(O)Cn1c2ccc(Cl)cc2c2cc(Cl)ccc21 (configuration not stated) from this test.
RESULT: inactive

* * *

Property: growth; scope: individual molecules
Test system: A498 renal
methodSummary: NCI-60 one-dose screen, 48 h (100 = growth as untreated, 0 = no growth, -100 = all killed)
assayConditions: 10 µM
About 83,000 compounds went through this panel and 20% of them were active in at least one assay; those are over-represented in the sample as a whole.
The figure you give is taken to be in %; do not add the unit.

Here's what some known entries look like.
>>> quantitativeresult("CCc1cc2n(n1)-c1ncc(C(=O)OC)cc1Oc1ccccc1-2")
101
>>> quantitativeresult("Cc1cc(C)c2nc(C)c(C)[n+]([O-])c2c1")
146
>>> quantitativeresult("CC(C)/C=N/NC(N)=S")
82.7
>>> quantitativeresult("C/C(=N\\NC(=S)N1CCCC1)c1ccccn1")
-5.14
>>> quantitativeresult("O=C(C=P(c1ccccc1)(c1ccccc1)c1ccccc1)c1ccc(Br)cc1")
64.3
>>> quantitativeresult("CCCCCC(CCC)COC(=O)c1ccc(OC)cc1 (stereo not drawn)")
109
>>> quantitativeresult("c1ccc(OCCC[P+](c2ccccc2)(c2ccccc2)c2ccccc2)cc1")
12.1
>>> quantitativeresult("CCOC(=O)c1cc2c(n1Cc1ccccc1)-c1oncc1CC2")
48.4

QUERY: Read the entry `COc1ccc(NC(=O)CCn2cnc3c(cc(-c4ccccc4)n3-c3ccccc3)c2=O)cc1` and write its reported growth.
RESULT: 108

QUERY: Return growth for the following molecule: `COc1cc(-c2nc(-c3nnc(-c4cccnc4)o3)c3ccccn23)cc(OC)c1OC`
RESULT: 83

* * *

Quick reference for growth among some compounds
Tested on: CCRF-CEM leukemia
methodSummary: NCI-60 one-dose screen, 48 h (100 = growth as untreated, 0 = no growth, -100 = all killed)
assayConditions: 10 µM
The panel holds about 83,000 compounds, 20% with a hit somewhere; the sample as a whole holds those more often. Calls of active or inactive are those of the source. How the source made its calls: active means growth percent below 10; inactive means the rest.

>>> result("CCOC(=O)Cn1nnc(-c2ccc(OCc3ccccc3F)cc2)n1")
"92.4% (inactive)"
>>> result("CCOc1cc(Br)c(C(C)NC(=O)c2cccc(OC)c2)cc1OCC (stereo not given)")
"53.7% (inactive)"

QUERY: Provide one value: measured growth of `C/C(=N/NC(=O)c1sc(=S)n(C)c1N)c1cc2cc(Cl)ccc2o1`
RESULT: 81.8% (inactive)

QUERY: Note down growth recorded for `CCOC(=O)c1c(C)n(-c2ccc(Cl)cc2)c2ccc(OC(=O)/C=C/c3ccccc3)cc12`
RESULT: 75.1% (inactive)

QUERY: // Input: `CCOc1ccc2c(c1)CC[C@@H]1[C@@H]2CC[C@]2(C)[C@@H](O)[C@@H](O)C[C@@H]12` . Output its growth only.
RESULT: 87.9% (inactive)

* * *

System: KM12 colon
methodSummary: NCI-60 one-dose screen, 48 h (100 = growth as untreated, 0 = no growth, -100 = all killed)
assayConditions: 10 µM
About 83,000 compounds went through this panel and 20% of them were active in at least one assay; those are over-represented in the sample as a whole.
The compounds listed here are annotated with their growth.
Just the number in %, nothing appended.

>>> quantitativeresult("Oc1ccccc1-c1nnc(Cn2c(Cc3cccc4ccccc34)nc3ccccc32)o1")
98.8
>>> quantitativeresult("NCCNc1ccc2cc(-c3nc4ccccc4[nH]3)c(=O)oc2c1")
99.8
>>> quantitativeresult("COC(=O)C1(C(=O)OC)C2C(=O)C3C(C21)C3(C(=O)OC(C)(C)C)C(=O)OC(C)(C)C (stereo unspecified)")
112

QUERY: Return value of growth for input Cn1c(=O)c2[nH]c(C(O)c3ccc(Cl)cc3)nc2n(C)c1=O (stereo unspecified) , no commentary.
RESULT: 97.3

QUERY: Entry `CCCCCCCOc1cccc(/C=C2/C(=O)N=C3SCCCN32)c1` needs its growth filled in; supply it.
RESULT: 75.2

QUERY: Identify growth associated with the compound `COc1ccc(-c2cc(/C=C/C(=O)c3ccc(N)cc3)[nH]n2)cc1OC`
RESULT: 5.98

QUERY: Supply recorded growth for `N#CCC1CCCC1` here.
RESULT: 110

QUERY: Give growth for `CCCCCCCCCCCCc1ccc(C(=O)/C=C/C(=O)O)cc1`
RESULT: 97.7

QUERY: Read the entry `CCCCCCCCCCCCCCCCn1cc[n+](C)c1` and write its reported growth.
RESULT: -83.9

QUERY: Give recorded growth. CCN(CC)CCn1c(=N)n(CC(O)c2ccc(Cl)c(Cl)c2)c2ccccc21 (stereo unspecified)
RESULT: 84.4

QUERY: Tell me growth reported for `COc1ccc(S(=O)(=O)Nc2cc(/C=C\c3cc(OC)c(OC)c(OC)c3)ccc2OC)cc1`
RESULT: -5.35
